Each entry below carries its reported KD mutant/KD wt.
Target Under Test: T1, human TGFβ2 (human, UniProt P61812 303-414)
T1 construct: also called TGFβ2 homodimer
T1 sequence: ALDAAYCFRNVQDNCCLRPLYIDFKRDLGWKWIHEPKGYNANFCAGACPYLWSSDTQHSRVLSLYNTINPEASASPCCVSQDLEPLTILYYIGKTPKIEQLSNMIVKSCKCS
Test Summary: Biacore, 3.33-90 nM, 1:1 global fit, vs wt GC1008

Binder	KD mutant/KD wt
S31W (antibody, V domains shown, GC1008 IgG4 variant) VH: QVQLVQSGAEVKKPGSSVKVSCKASGYTFSWNVISWVRQAPGQGLEWMGGVIPIVDIANYAQRFKGRVTITADESTSTTYMELSSLRSEDTAVYYCASTLGLVLDAMDYWGQGTLVTVSS VL: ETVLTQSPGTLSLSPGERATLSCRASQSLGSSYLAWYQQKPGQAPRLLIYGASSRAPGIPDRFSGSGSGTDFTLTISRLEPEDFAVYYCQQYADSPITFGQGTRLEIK	1.3
I54W (antibody, V domains shown, GC1008 IgG4 variant) VH: QVQLVQSGAEVKKPGSSVKVSCKASGYTFSSNVISWVRQAPGQGLEWMGGVIPWVDIANYAQRFKGRVTITADESTSTTYMELSSLRSEDTAVYYCASTLGLVLDAMDYWGQGTLVTVSS VL: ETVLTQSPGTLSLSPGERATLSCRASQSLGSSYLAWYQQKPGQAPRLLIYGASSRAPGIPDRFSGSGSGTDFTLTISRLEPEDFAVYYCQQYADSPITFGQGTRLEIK	1.4
E74W (antibody, V domains shown, GC1008 IgG4 variant) VH: QVQLVQSGAEVKKPGSSVKVSCKASGYTFSSNVISWVRQAPGQGLEWMGGVIPIVDIANYAQRFKGRVTITADWSTSTTYMELSSLRSEDTAVYYCASTLGLVLDAMDYWGQGTLVTVSS VL: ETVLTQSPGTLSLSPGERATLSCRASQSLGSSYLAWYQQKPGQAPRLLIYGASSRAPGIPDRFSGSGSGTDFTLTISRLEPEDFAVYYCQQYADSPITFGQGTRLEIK	0.5
E74R (antibody, V domains shown, GC1008 IgG4 variant) VH: QVQLVQSGAEVKKPGSSVKVSCKASGYTFSSNVISWVRQAPGQGLEWMGGVIPIVDIANYAQRFKGRVTITADRSTSTTYMELSSLRSEDTAVYYCASTLGLVLDAMDYWGQGTLVTVSS VL: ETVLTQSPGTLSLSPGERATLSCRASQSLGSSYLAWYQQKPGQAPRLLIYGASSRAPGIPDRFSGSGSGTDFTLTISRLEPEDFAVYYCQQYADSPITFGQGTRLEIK	1.3
I52L (antibody, V domains shown, GC1008 IgG4 variant) VH: QVQLVQSGAEVKKPGSSVKVSCKASGYTFSSNVISWVRQAPGQGLEWMGGVLPIVDIANYAQRFKGRVTITADESTSTTYMELSSLRSEDTAVYYCASTLGLVLDAMDYWGQGTLVTVSS VL: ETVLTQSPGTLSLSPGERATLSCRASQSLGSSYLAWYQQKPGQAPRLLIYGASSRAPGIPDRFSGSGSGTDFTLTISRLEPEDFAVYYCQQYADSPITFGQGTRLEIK	2.4
N32E (antibody, V domains shown, GC1008 IgG4 variant) VH: QVQLVQSGAEVKKPGSSVKVSCKASGYTFSSEVISWVRQAPGQGLEWMGGVIPIVDIANYAQRFKGRVTITADESTSTTYMELSSLRSEDTAVYYCASTLGLVLDAMDYWGQGTLVTVSS VL: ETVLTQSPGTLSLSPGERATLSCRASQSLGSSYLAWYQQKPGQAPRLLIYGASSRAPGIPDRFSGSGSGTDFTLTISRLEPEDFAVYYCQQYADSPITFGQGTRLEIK	0.8
Y27H (antibody, V domains shown, GC1008 IgG4 variant) VH: QVQLVQSGAEVKKPGSSVKVSCKASGHTFSSNVISWVRQAPGQGLEWMGGVIPIVDIANYAQRFKGRVTITADESTSTTYMELSSLRSEDTAVYYCASTLGLVLDAMDYWGQGTLVTVSS VL: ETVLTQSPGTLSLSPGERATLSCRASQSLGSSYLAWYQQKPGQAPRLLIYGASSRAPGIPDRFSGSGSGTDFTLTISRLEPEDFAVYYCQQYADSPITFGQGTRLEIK	1.3
S30W (antibody, V domains shown, GC1008 IgG4 variant) VH: QVQLVQSGAEVKKPGSSVKVSCKASGYTFWSNVISWVRQAPGQGLEWMGGVIPIVDIANYAQRFKGRVTITADESTSTTYMELSSLRSEDTAVYYCASTLGLVLDAMDYWGQGTLVTVSS VL: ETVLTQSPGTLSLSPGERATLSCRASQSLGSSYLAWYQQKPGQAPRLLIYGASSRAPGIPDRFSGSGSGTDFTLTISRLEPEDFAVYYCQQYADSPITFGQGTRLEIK	0.4
I54F (antibody, V domains shown, GC1008 IgG4 variant) VH: QVQLVQSGAEVKKPGSSVKVSCKASGYTFSSNVISWVRQAPGQGLEWMGGVIPFVDIANYAQRFKGRVTITADESTSTTYMELSSLRSEDTAVYYCASTLGLVLDAMDYWGQGTLVTVSS VL: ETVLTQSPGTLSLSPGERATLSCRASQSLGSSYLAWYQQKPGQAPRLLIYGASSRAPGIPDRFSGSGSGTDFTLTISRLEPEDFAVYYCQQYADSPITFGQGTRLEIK	0.6
I54T (antibody, V domains shown, GC1008 IgG4 variant) VH: QVQLVQSGAEVKKPGSSVKVSCKASGYTFSSNVISWVRQAPGQGLEWMGGVIPTVDIANYAQRFKGRVTITADESTSTTYMELSSLRSEDTAVYYCASTLGLVLDAMDYWGQGTLVTVSS VL: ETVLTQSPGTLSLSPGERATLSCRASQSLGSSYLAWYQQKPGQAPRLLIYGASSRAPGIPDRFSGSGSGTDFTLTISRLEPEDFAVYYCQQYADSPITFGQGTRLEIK	2.1
